- Test Description: yeast display, Sf9 membrane polyspecificity reagent, FACS + sequencing; frameworks hold sequencing errors
Reported Property: polyreactivity (PSR sort gate)

1. QVHLVESGGGLVQAGGSLRLSCAASGLTFAWYAMGWYSQAPGKERELVAVISNGGSTNDADSVKGRFTISRDNAKNTVYLQMNSLKPEDTAVYYCAAGWVWSGNDYYYWGQGTQVTVSS low polyreactivity
2. QVKLVESGGGLVQAGGSLRLSCAASGRIFLWYAMGWYRQEPGKERELVAAISSNGGSTRYAHSVKGRFTISRDNAKNTVYLQMNSLKPEDTAVYYCNADVHWNRYPYGGNGYGYWGQGTQVTVSS low polyreactivity
3. QVQLVESGGGLVQAGGSLRLSCAASGSTFWPYAMGWYRPAPGKERELVAAITNSGGSTYYADSVKGRFTISRDNAKYTVYLQMNSLKPEDTAVYYCAVRGVIYSYTPVNTYDYWGQGTQVTVSS low polyreactivity
4. QVQLVESGGGLVQAGGSLRLSCAASGYTLTPYTMGWYRQAPGKERELVAAINRSGGSTYYADSVKGRFTISRDNAKNTVYLQMNSLKPEDTAVYYCAAYGYYNFGYYYWGQGTQVTVSS high polyreactivity
5. QVQLVESGGGLVQAGGSLRLSCAASGRTFGYYTMGWYRQAPGKERELVAAITWSGSTYYADSVKGRFTISRDNAKNTVYLQMNSLKPEDTAVYYCAVEIYYFVYGISYDYWGQGTQVTVSS high polyreactivity
6. QVQLVESGGGLVQAGGSLRLSCADSGFIFWYYAMGWYRQAPGKERELVAAISWSGDSTYYADSVKWRFTISRDTANNTVYLQMNSLKPEDTAVYYCAVYDELDVFYNGYDYWGQGTQVTVSS high polyreactivity
7. QVQLVESGGGLVQAGGSLRLSCAASGGIFPWNAMGWYRQAPGKERELVAAIDNTDGTHYADSVKGRFTISRDNAKNTVYLQMNSQKPEDTAVYYCAAEYYYFVYPFYNWGYEYWGQGTQVTVSS high polyreactivity
8. QVQLVESGGGLVQAGGSLRLSCAASGFTFNRYAMGWYRQAPGKERELVASITTGGRTNYADSVKGRFTISRDNAKNTVYLQMNSLKPEDTAVYYCAADYGYFYRYYYWGQGTQVTVSS high polyreactivity
9. QVQLVESGGGLVQAGGSLRLSCADSGSIFNGNTMGWYRQAPGKERELVAAITSGGRTYYADSVKGRFTISRDNAKNTVYLQMNSLKPEDTAVYYCATRNPYYRSYYSYDYWGQGTQVTVSS high polyreactivity
10. QVQLVESGGGLVEAGGSLRLSCAASGSTVWRYAMGWYRQAPGKERELVAAISWNGGSTYYADSVKGRFTISRDNAKNTVYLQMHSLKPEDTAVYYCARGYSWSVGYPRVQDMDYWGQGTQVTVSS high polyreactivity

====

- Test Description: yeast display, Sf9 membrane polyspecificity reagent, FACS + sequencing; frameworks hold sequencing errors
Reported Property: polyreactivity (PSR sort gate)

1. QVQLVESGGGLVQAGGSLRLSCAASGRTFQQNAMGWYRQAPGKERELVAAINSRGGRTYYADSVKGRFTISRDYAKNTVYLQMNSLKPEDTAVYYCAARYYWGQGTQVTVSS high polyreactivity
2. QVQLVESGGALVQAGGSLRLSCAASGFTFRGYAMGWYRQAPGKEMELVAAIRGGGGRTYYADSVKGRFTISRDNAKNTVYLQMNSLKPEDTAGYYCAASYYDYSDVRSDYWGQGTQVTVSS high polyreactivity
3. QVQLVESVVCLVQAGGSLRLSCAASGSIFRSYAMGWYRQAPGKERELVASISRRGGSTYYADSVKGRFTISRDNAKNTVYLQMNSLKPEDTAVYYCAAVGYNSRVSTTPSEMYYWGQGTQVTVSS high polyreactivity
4. QVQLVESGGGLVQAGGSLRLTCAASGLTFYSNTMGWYIQAPGKERELVAAISWTGTSTYYADSVKVRFTISRDNAKNTVFLQMNSLKAEDTAVYYWNALGYARSYDSWGQGTQVTVSS high polyreactivity
5. QVQLVESGGGLVQAGGSLRLSCAASGRTFRLYAMGWYRQAPGKERELVARISRGGSTYYADSVKGRFTISRDNAKNTVYLQMNSLKPEDTAVYYCAAEGWGLSHRYDYWGQGTQVTVSS high polyreactivity
6. QVQLVESGGGLVQAGGSLRLSCAASGRTFATNAMGWYSQAPGKERELVAGINGSGSTNYADSVKGRFTISRDNAKNTVYLQMNSLKPEDTAVYYCAAYVGLYYRLHYYYWGQGTQVTVSS low polyreactivity
7. QVQIVESGGGLVQAGGSLRLICAASGIIFEGYAMGWYRQAPGKERELVAAISQSGGSTRYADSVKGRFTISRDNATNTVYLQMNSLKPEDTAVYYFAKEVWNWGPYYYWGQGTQVTVSS low polyreactivity
8. QVQLVESGGCLVQAGGSLRLSCAASGGTFSRNAMGWYRQAPGKERELVAAINSSGVSTSYAYSVKGRFTISRDNEKNTVYLQMNSLKPEDTAFYYCAAETSSAEVDYWGQGTQVTVSS low polyreactivity
9. QVQLVESGGGFDQAGGSLRLSCAASGITFYDNVMGSYIQAPGKERELVAAITSGGSTNYSDSVKGRFTISRANAKNTVYLQMNSLKPEDTAVYYCAATPYGIGYDYWGQGTEVTVSS low polyreactivity

====

- Test Description: yeast display, Sf9 membrane polyspecificity reagent, FACS + sequencing; frameworks hold sequencing errors
Reported Property: polyreactivity (PSR sort gate)

1. QVQLVESGGGLVQAGGSLRLSCAASGFTFYQNAMGWYRQAPGKVRELVAAIDRRGGRTYNADSVKGRFTISRDNAKKTVYLQMNSLKPEDTAVYYCNKEKYYTGYDYWGQGTQVTVSS high polyreactivity
2. QVQLVESGGGLVQAGGSLRLSCAASGIIFKYNVMGWYRQAPGKERELVAAITDSGTSTFYADSVKGRFTISRDNAKNTVYLQMNSLKPEDTAVYYCAADEFSVFTIETYGYDYWGQGTQVTVSS low polyreactivity
3. QVQLVESGGGLVQAGGSLRLSCAASGSIFRLNAMGWYRQAPGKERELVARIDSSGSTNYADSVKGRFTISRDNAKNTVYLQMNSLKPEDTAVYYCAAGLVLIVGMDSWGQGTQVTVSS low polyreactivity
4. QVHLVESGGGLVQAGGSLRLSCAPSGRTFFINAMGWYRQAPGKERELVAAIRVGAGSTYYADSVKGRFTISRDNAKNTVYLQMNSLKPEDTAVYYCAAKRVGSREYYWGQGTQVTVSS high polyreactivity
5. QVQLGESGGGLVQAGGSLRLSCAASGFTFHKNAMGWYRQAPGKERELVAVISQSASSTYYSDSVKGRFTISRDIAKITVYLQMNGLKPEDTAVYYCNAKYYRYNRRNYWGQGTQVTVSS high polyreactivity
6. QVQLVESVVGLVQAGGSLRLSSAASGGTFSENAMGWYRQAPGKERELVAAITWSVGNTYADSVKGLFTISRDNAKNTVYLQMNSLKPEDTAVYYCAKDFSVPAYDYWGLGTQVTVSS low polyreactivity
7. QVQLVESGGGLVQEGGSLRLICAASGLTFFPYAMGWYRQAPGKDRELVAAITTSDGTTYYADSVKGRFTISRDNAKNTVYLQMNSLKPEDTAVYYCAAVYSPRSVWWYDYWGQGTQVTVSS low polyreactivity
8. QFQLVESGGGLDQAGGSLRISCAPSGITFEYYTMGLYRQAPGKEIEFVAAITQGGGTTYYADSVKGRFTISRDNEKNTVYLQMNSLKPEDTAVYYCAAYVGYLLLYYPTYYYWGQGTQVTVSS low polyreactivity
9. QVQLVDSGGGLVQAGGSLRLISAASGLIFSWYDKGWYRQAPGKERELVAAITTDGDDTYYADSVKGRFTISRDNAKNTVYLQMNSLKPDDTAVYYCAADSELGIRYPDRDYDSWGLGTQVTVSS low polyreactivity
10. QDQLVDSGGGLVQAGGSLRLSSAASGFSYGGYAMGWYRQAPGKERELVAAISSGGGTTYADSVKGRFTISRDNAKYTVYLQMNSLKPEDTAVYYCAAVTRDYRNDRRRQRCYYWGQGTQVTVSS high polyreactivity
11. QVQLVESGGGLVQAGGSLRLSCAASGSTFSNNVMGGYIQAPGKERELVAAISSRGGSTYYADSVKGRFTISRDNAKNTVYLQMNSLKPEDTAVYYCAADQWYAFILGYPMVYWGQGTQVTVSS high polyreactivity
12. QVQLVESGGGLVQAGGSLRLSCAASGRIFGSYAMGWYRQAPGKERELVATIRRSGGRTYYADSVKGRFTISRDNAKNTVYLQKTSLKPADTAVYYCAKDEWGNIRHERDYWGQGTQVTVSS low polyreactivity
13. QVQLVDSGGGLVQAGGSLRVSCAASGIIFYYNAMGWYRQAPGKEREFVASISSRGGSTYYADSVKGRFTISRDNSKNTVYLQMNSLKPEDTAVYYCAAAFDWRRQRYNYWGQGTQVTVTS high polyreactivity
14. QVQLVESGGGLVQAGGSLRLSCAASGFTFYYYAMGWSRQAPGKERELVASISKRGGTYYADSVKGRFTISRDNAKNTVYLQMNSLKPEDTAVYYCAAGIPRQAYKFYWGQGTQVTVSS high polyreactivity
15. QVQLGESGGGLLQAGGSLRLSCAASGFTFYGYAMGWYRQAPGKERELVAAISRRGGSTYYADSVKGRFTISRDNAKYTVYVQMNSLKPEDTAVYYCITLFSHLRDRYDYWGQGTEVTVSS high polyreactivity
16. QVQLVESGGGLVQAGGSLRLSCAASGRIFSYYAMGWYRQAPGKERELVAGIRSGCSTNYADSVKGRFTISRDNAKNTVYLQMNSLKPEDTAVYYCAARYFKFYSKGSFRYLYESWGQGTQVTVSS high polyreactivity
